tested on: HCT116; assay: Proliferation assay (CellTiter Glo); format: cell-based; conditions: HCT116; % of top inhibition; 96 hours

compound	unit_symbol	Top Inhibition %
CCCCCCCCCCCCCC(=O)O[C@@H]1[C@@H](C)[C@@]2(O)[C@@H](C=C(CO)C[C@]3(O)C(=O)C(C)=C[C@@H]23)[C@@H]2C(C)(C)[C@]12OC(C)=O [Compound K103, 12-O-Tetradecanoylphorbol-13-acetate]	%	21.4
CC(=O)O[C@@]12C[C@@H](C)[C@@]3(O)[C@@H](C=C(CO)C[C@]4(O)C(=O)C(C)=C[C@@H]34)[C@@H]1C2(C)C [Compound K101A, 12-deoxyphorbol 13-acetate]	%	17.4
CC(=O)O[C@H]1C(=O)[C@@]2(C)[C@H]([C@H](OC(=O)c3ccccc3)[C@]3(O)C[C@H](OC(=O)[C@H](O)[C@@H](NC(=O)c4ccccc4)c4ccccc4)C(C)=C1C3(C)C)[C@]1(OC(C)=O)CO[C@@H]1C[C@@H]2O	%	94.8
C/C=C(/C)C(=O)O[C@H]1C(C)=C[C@]23C(=O)[C@@H](C=C(CO)[C@@H](O)[C@]12O)[C@H]1[C@@H](C[C@H]3C)C1(C)C [Compound K102, ingenol-3-angelate]	%	23.2
